Attribution: patent US12162884B2

Hi there, I'd appreciate the recorded % Area for every entry that follows.
Assay Summary: Stability studies at 40° C./75% RH (HPLC)
Assay type: physicochemical
Condition: 4 Weeks, HPLC
Answers are plain numbers, in % Area.

Check out these entries, answers already filled in.
So, CC(C)c1cnn2c(N[C@@H]3CCc4[nH]c5ccccc5c4C3)nc(-c3cncc(F)c3)nc12 [Compound 4 Form A] ? Its % Area was 99.37

The reported value for CC(C)c1cnn2c(N[C@@H]3CCc4[nH]c5ccccc5c4C3)nc(-c3cncc(F)c3)nc12 [Compound 2 Form A] in terms of % Area is 98.58

According to the records, this compound CC(C)c1cnn2c(N[C@@H]3CCc4[nH]c5ccccc5c4C3)nc(-c3cncc(F)c3)nc12.CCS(=O)(=O)O [Compound 1 Form B] displays % Area of 99.46

Lab book: % Area of CC(C)c1cnn2c(N[C@@H]3CCc4[nH]c5ccccc5c4C3)nc(-c3cncc(F)c3)nc12.CS(=O)(=O)O [Compound 3 Form B] noted as 16.23

Query compound follows.
Short answer for CC(C)c1cnn2c(N[C@@H]3CCc4[nH]c5ccccc5c4C3)nc(-c3cncc(F)c3)nc12 [Compound A Form B] : % Area was 99.58
